System Under Test: DNA topoisomerase 1 (Escherichia coli (strain K12)) (UniProt P06612)
Sequence (P06612 whole entry): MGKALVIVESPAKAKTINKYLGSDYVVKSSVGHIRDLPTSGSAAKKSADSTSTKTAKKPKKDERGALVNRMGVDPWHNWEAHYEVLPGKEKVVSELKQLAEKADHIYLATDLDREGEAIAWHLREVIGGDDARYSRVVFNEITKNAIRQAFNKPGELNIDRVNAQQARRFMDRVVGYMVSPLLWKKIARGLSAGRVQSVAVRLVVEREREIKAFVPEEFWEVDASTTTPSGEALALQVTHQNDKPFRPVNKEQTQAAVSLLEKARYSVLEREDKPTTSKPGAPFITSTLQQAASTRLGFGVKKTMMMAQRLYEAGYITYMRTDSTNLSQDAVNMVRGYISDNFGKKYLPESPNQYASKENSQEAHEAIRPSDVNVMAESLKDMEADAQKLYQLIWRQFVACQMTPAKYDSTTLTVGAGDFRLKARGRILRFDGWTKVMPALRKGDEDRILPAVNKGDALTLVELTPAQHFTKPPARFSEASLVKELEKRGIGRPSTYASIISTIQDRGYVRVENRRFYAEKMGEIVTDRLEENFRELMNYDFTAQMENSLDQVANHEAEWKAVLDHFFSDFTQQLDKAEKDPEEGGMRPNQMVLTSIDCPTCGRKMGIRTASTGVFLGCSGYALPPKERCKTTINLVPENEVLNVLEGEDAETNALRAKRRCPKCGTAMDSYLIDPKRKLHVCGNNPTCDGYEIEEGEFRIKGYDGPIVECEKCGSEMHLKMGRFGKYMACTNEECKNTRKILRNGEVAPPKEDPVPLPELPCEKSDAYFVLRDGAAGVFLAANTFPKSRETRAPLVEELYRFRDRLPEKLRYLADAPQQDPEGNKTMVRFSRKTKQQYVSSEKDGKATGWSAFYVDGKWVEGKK
Procedure Summary: Inhibition of Escherichia coli topoisomerase 1 mediated DNA relaxation at 10 uM using plasmid pMT-puro DNA as substrate after 30 mins by ethidium bromide staining-based agarose gel electrophoresis method
The source made the active and inactive calls. The rule behind the calls is not given here.
Classes used: active, inactive

Compound Structure String: CCCCCCC[C@@H]1Cc2cc(O)c(C(=O)O)c(O)c2[C@H](O)O1
System Under Test: DNA topoisomerase 1 (Escherichia coli (strain K12)) (UniProt P06612)
Assigned Category: inactive

Compound Structure String: CO[C@@H]1/C=C(\C)C[C@H](O)[C@]2(O)[C@H](CC2(C)C)/C(CO)=C\1
System Under Test: DNA topoisomerase 1 (Escherichia coli (strain K12)) (UniProt P06612)
Assigned Category: inactive

Compound Structure String: CO[C@@H]1/C=C(\C)C[C@H](OC(C)=O)[C@]2(O)[C@H](CC2(C)C)/C(COC(C)=O)=C\1
System Under Test: DNA topoisomerase 1 (Escherichia coli (strain K12)) (UniProt P06612)
Assigned Category: inactive

Compound Structure String: CCCCCCC[C@@H]1Cc2cc(O)c(C(=O)O)c3c2[C@H](O1)[C@H]1[C@@H](OC)/C=C(/CO)[C@H]2CC(C)(C)[C@]2(O)[C@@H](O)C[C@]1(C)O3
System Under Test: DNA topoisomerase 1 (Escherichia coli (strain K12)) (UniProt P06612)
Assigned Category: inactive

Compound Structure String: CCCCCCC[C@@H]1Cc2cc(O)c(C(=O)O)c3c2[C@H](O1)[C@H]1[C@@H](OC)/C=C(/COC(C)=O)[C@H]2CC(C)(C)[C@]2(O)[C@@H](OC(C)=O)C[C@]1(C)O3
System Under Test: DNA topoisomerase 1 (Escherichia coli (strain K12)) (UniProt P06612)
Assigned Category: inactive

Compound Structure String: C=C1CC[C@@H]2[C@H]3O[C@H](CCCCCCC)Cc4cc(O)c(C(=O)O)c(c43)O[C@@]2(C)CC[C@@H]2[C@@H]1CC2(C)C
System Under Test: DNA topoisomerase 1 (Escherichia coli (strain K12)) (UniProt P06612)
Assigned Category: active

Compound Structure String: CCCCCCC[C@@H]1Cc2cc(O)c(C(=O)O)c3c2[C@H](O1)[C@H]1[C@@H](OC)/C=C(/COC(C)=O)[C@H]2CC(C)(C)[C@]2(O)[C@@H](O)C[C@]1(C)O3
System Under Test: DNA topoisomerase 1 (Escherichia coli (strain K12)) (UniProt P06612)
Assigned Category: active
